system tested: Recombinant human caspase-10 (Homo sapiens, UniProt Q92851)
Sequence (Q92851 220-521): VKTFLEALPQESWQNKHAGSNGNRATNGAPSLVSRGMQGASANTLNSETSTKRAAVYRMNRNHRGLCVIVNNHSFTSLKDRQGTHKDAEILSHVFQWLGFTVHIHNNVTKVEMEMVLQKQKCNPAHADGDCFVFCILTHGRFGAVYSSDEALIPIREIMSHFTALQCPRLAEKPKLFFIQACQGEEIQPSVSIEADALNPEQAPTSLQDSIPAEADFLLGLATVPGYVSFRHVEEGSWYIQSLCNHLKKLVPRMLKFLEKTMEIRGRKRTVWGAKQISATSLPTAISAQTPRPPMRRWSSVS
experiment notes: delayed-time fluorescence caspase inhibition test, caspase-10
metric name: IC50
Show the value, then the unit it is measured in.

IC50 reported for this compound CSc1ccc(S(=O)(=O)NCC2(Cc3ccc(CCO)cc3)CCCC2)cc1 [Example 43] : 5.12 µM

Summary for this compound, COc1ccc(S(=O)(=O)NCC2(Cc3ccc(CCO)cc3)CCCC2)cc1 [Example 47] : IC50 is 5.51 µM

The measured IC50 associated with O=S(=O)(NCC1(Cc2ccc(CCO)cc2)CCCC1)c1ccc(Cl)c(C(F)(F)F)c1 [Example 65] reads 0.25 µM

Data point: CS(=O)(=O)CCc1ccc(CC2(CNS(=O)(=O)c3cccc4ccccc34)CCC2)cc1 [Example 30] ; IC50 = 4.46 µM
